Experiment: yeast display, Sf9 membrane polyspecificity reagent, FACS + sequencing; frameworks hold sequencing errors
measured property: polyreactivity (PSR sort gate)

Recorded polyreactivity (PSR sort gate), per entry:
INSERT INTO assay_data (construct_sequence, measured_property, endpoint_result) VALUES
  ('QVQLVESGGGLVQAGGSLRLSCAASGSIFLPYAMGWYRQAPGKEREFVAAIRWSTGRTFYADSVKGRFTISRDNAKNTVYLQMNSLKPEDTAVYYCAAVWPDVRGYDYWGQGTQVTVSS', 'polyreactivity (PSR sort gate)', 'high polyreactivity'),
  ('QVQLVESGGGLVQAGRSLRLSCAASGNIFIRYAMGWYRQAPGKEREVVAAISQSGGGTSYADSVKGRFTISRDNAKNTVYLQMNSLKPEDTAVYYCNARYWRYPWRFGAWVGHDYWGQGTQVTVSS', 'polyreactivity (PSR sort gate)', 'low polyreactivity'),
  ('QVQLVESGGGLVQAGGSLRLSCAASGHIFPTNAMGWYRQAPGKERELVAVISESVGSTYYADSVKGRFTISRDNAKNTVYLQMNSLKPEDTAVYYCAVRSRTPRAYYYWGQGTQVTVSS', 'polyreactivity (PSR sort gate)', 'low polyreactivity'),
  ('QVQLVESGGGLVQAGGSLRLSCAASGSIFGGYGMGWYRQAPGKERELVAAITSGSSTYYADSVTGRFTISRDNAKNTVYLQMNSLKPEDTAVYYCAARPYPHSAYEGDYWGRGTQVTVSS', 'polyreactivity (PSR sort gate)', 'low polyreactivity'),
  ('QVQLVESGGGLVQSGGSLRLSCAASGRIFRKYVMAWYRPAPGNERELVATISNRVGSTYYADSVKGRFTISRDKAKNTVYLQMNSLKPEDTAVYYCAAVSSYTAYDYWGQGTQVTVSS', 'polyreactivity (PSR sort gate)', 'high polyreactivity');

According to the records, this sequence QVQLVESGGGLVQAGGSLRLSCAASGNTFTYYAMGWYRQAPGKERELVAAINIDVASTYYADSVKGRFTISRDNAKNTVYLQMNSLKPEDTAVYYCAAEVGVYPVYWYDYWGQGTQVTVSS displays polyreactivity (PSR sort gate) of low polyreactivity

So, QVQLVESGGGLVHAGGSLRLSFAASGRTFVNNAMGWYRQAPGKERELVAAITGSCGSTYYADSVKGRFTISRDNAKNTFYLQMNSLKPEYTAVYYCAKRHVGSRYLFDYWGQGTQVTVSS ? Its polyreactivity (PSR sort gate) was low polyreactivity

Short answer for QVQLVESGGGLVQAGGSLRLSCAASGRTFKSYSMGWYRQAPGKERELVAAISWSGGSTYYADSVKGRFTISRDNAKNTVYLQMNSLKPEDTAVYYCAKRGYASGSKWDYGYWGQGTQVTVSS : polyreactivity (PSR sort gate) was high polyreactivity

The sequence listed as QVQLVESGGGLVQAGGSLRLSCAASGFTFYLYAMGWYRQAPGKERELVASISSGGRTYYADSVKGRFTISRDNAKNTVYLQMNSLKPEDTAVYYCAVSPYSRRKYEYYYWGQGTQVTVSS has a reported polyreactivity (PSR sort gate) of high polyreactivity

Documented polyreactivity (PSR sort gate) of QVQLVESGGGLVQAGGSLRLSCAASGRPFTWYALGWYRQAPGKEREVVAAISKSGGSTYYADSVKGRFTISRDNAKNTVYLQMNSLKPEDTAVYYCNADFYGYFLGYGYCGQGTQVTVSS : low polyreactivity

Looking up QVQLVESGGGIVQAGGSLRLSCAASGRIFEWYAMGWYRQAPGKERELVAAITKTAGSTYYADSVKGRFTISRDNAKNTVYLQMNSLKPEDTAVYYCNAKTYHSRRKVLRFDYWGQGTQVTVSS , I see its polyreactivity (PSR sort gate) listed as low polyreactivity
